tested on: U2OS; assay: Incucyte cell viability with U2OS; assay type: toxicity, cell-based; conditions: human, 18 h, 10 µM, compound concentration 10 uM, replicate number 1, timepoint 18 hours; also: filed as whole numbers so only -1 and 0 and 1 occur

compound: CC(C)Oc1ccc(-c2nn([C@@H](C)c3oc4ccc(F)cc4c(=O)c3-c3cccc(F)c3)c3ncnc(N)c23)cc1F
Growth Rate: 0
--
compound: N#Cc1ccc(Nc2ccc3[nH]c(=O)[nH]c3c2)c(Cl)c1 [TP-021n]
Growth Rate: 0
--
compound: CC1=C(C#N)C(c2ccc3c(c2)c(NC(=O)c2ccccc2C)nn3C)C(C#N)=C(C)N1
Growth Rate: 1
--
compound: C[C@H]1CCCN1Cc1nc2cc(NC(=O)c3ccc4cnccc4c3)ccc2[nH]1
Growth Rate: 1
--
compound: CCCCc1nc2ccc(NC(=O)NC3CCCCC3)cc2n1Cc1ccc(-c2ccccc2C(=O)O)cc1
Growth Rate: 0
--
compound: CNc1nc(-c2ccc3c(N)n[nH]c3c2)cc(N2C[C@@H](C(=O)NC3CCCCC3)CC[C@H]2C)n1
Growth Rate: 0
--
compound: CN1CC(=O)N=C1NC(=O)Nc1cccc(Cl)c1 [FENOBAM ANHYDROUS]
Growth Rate: 1
--
compound: O=C(NOC[C@H](O)CO)c1ccc(F)c(F)c1Nc1ccc(I)cc1F
Growth Rate: 0
--
compound: CCNC(=O)c1cc2c(N3CCOC[C@@H]3C)ccnc2[nH]1
Growth Rate: 0

###

tested on: Fibroblast; test: Multiplex assay against human fibroblast; type: toxicity, cell-based; conditions: 12 h, 1 µM, compound concentration 1 uM, replicate 1
# maps each entry to its Population Mitotic Cells (%)

compound: CC(=O)c1cc(-c2cc(C(=O)NC3CC3)ccc2C)c2ncccn12
Population Mitotic Cells (%): 31%

compound: CCn1c(-c2nonc2N)nc2cnc(Oc3cccc(NC(=O)c4ccc(OCCN5CCOCC5)cc4)c3)cc21 [GSK-269962A]
Population Mitotic Cells (%): 50%

compound: CCc1cc2c(cc1CC)CC(NC[C@H](O)c1ccc(O)c3[nH]c(=O)ccc13)C2
Population Mitotic Cells (%): 42%

compound: O=C(O)c1ccc2cc(-c3ccc(O)c(C45CC6CC(CC(C6)C4)C5)c3)ccc2c1
Population Mitotic Cells (%): 42%

compound: CC(C)Oc1ccc(C(=O)N[C@H](CNC(=O)CN(C)C)Cc2ccc(-c3cn4cccc([C@H](C)O)c4n3)cc2)cc1Cl [GSK-923295A]
Population Mitotic Cells (%): 28%

compound: CN(C)CCOc1ccc(-c2nc(-c3ccncc3)c(-c3ccc4c(c3)CC/C4=N\O)[nH]2)cc1
Population Mitotic Cells (%): 13%

compound: Cc1nc(Cc2cccc(C(F)(F)F)c2)sc1-c1ccc(C(N)=O)nc1 [TP-024n]
Population Mitotic Cells (%): 40%

compound: N#Cc1cnc(Nc2cc(NC[C@H]3CNCCO3)c(C(F)(F)F)cn2)cn1
Population Mitotic Cells (%): 34%

compound: Cl.Cl.NC1(c2ccc(-c3nc4ccn5c(=O)[nH]nc5c4cc3-c3ccccc3)cc2)CCC1
Population Mitotic Cells (%): 28%

compound: CCC(=O)O[C@]1(C(=O)SCF)[C@H](C)C[C@H]2[C@@H]3C[C@H](F)C4=CC(=O)C=C[C@]4(C)[C@@]3(F)[C@@H](O)C[C@@]21C [FLUTICASONE PROPIONATE]
Population Mitotic Cells (%): 28%

compound: COc1cc2c(NC3CCN(C(C)C)CC3)nc(N3CCC(F)(F)CC3)nc2cc1OCCCN1CCCC1
Population Mitotic Cells (%): 29%

compound: Cc1cc2c(cc1N1C(=O)c3cccc4c(CCCO)ccc(c34)C1=O)n(C)c(=O)n2C
Population Mitotic Cells (%): 31%

compound: Nc1nc2c(c(N3CCNCC3)n1)CCC1=C2[C@@H]2CCCC[C@@H]2O1
Population Mitotic Cells (%): 32%

compound: CCOc1cc2ncc(C#N)c(Nc3ccc(OCc4cccc(F)c4)c(Cl)c3)c2cc1NC(=O)/C=C/CN(C)C
Population Mitotic Cells (%): 27%

compound: CNC(=O)c1cc(Oc2ccc(NC(=O)Nc3cc(C(C)(C)C)nn3-c3ccc4ncccc4c3)c(F)c2)ccn1
Population Mitotic Cells (%): 10%

compound: c1ccc2oc(-c3csc(C4CCN(Cc5nc6ncccc6[nH]5)CC4)n3)cc2c1
Population Mitotic Cells (%): 26%
